Target: Fatty-acid amide hydrolase 1 (Rattus norvegicus)
Assay: Irreversible inhibition of His-tagged rat FAAH N-terminal transmembrane-deleted truncated form expressed in Escherichia coli assessed as ratio of Kinact to Ki by GDH-coupled FAAH assay
# note: exactly 10000 M⁻¹ s⁻¹ is not below, so it is label 0; use label 1 for Ratio strictly under it

query: Identify whether the compound Cc1noc(NC(=O)N2CCC(=Cc3cccc(Oc4ccc(C(F)(F)F)cn4)c3)CC2)c1C records Ratio below 10000 M⁻¹ s⁻¹.
result: label 0

query: Please indicate whether the reported Ratio of O=C(Nc1cccnc1)N1CCC(=Cc2cccc(Oc3ccc(C(F)(F)F)cn3)c2)CC1 is strictly below 10000 M⁻¹ s⁻¹.
result: label 0

query: Does the reported Ratio of the following compound sit strictly below 10000 M⁻¹ s⁻¹? CCOc1ccc(Oc2cccc(C=C3CCN(C(=O)Nc4cccnn4)CC3)c2)nc1
result: label 0

query: Does the reported Ratio of Cc1cccc(Oc2cccc(C=C3CCN(C(=O)Nc4cccnn4)CC3)c2)n1 stay below 10000 M⁻¹ s⁻¹?
result: label 1

query: Say whether its Ratio is strictly beneath 10000 M⁻¹ s⁻¹. Entry: O=C(Nc1cccnn1)N1CCC(=Cc2cccc(Oc3ccc(C(F)(F)F)nc3)c2)CC1
result: label 1

query: Could you please tell me whether Ratio recorded for O=C(Nc1cccnn1)N1CCC(=Cc2cccc(Oc3ccc(C(F)(F)F)cc3)c2)CC1 is less than 10000 M⁻¹ s⁻¹?
result: label 0

query: # strict comparison: is reported Ratio < 10000 M⁻¹ s⁻¹? input = O=C(Nc1cccnc1)N1CCC/C(=C/c2cccc(Oc3ccc(C(F)(F)F)cn3)c2)C1
result: label 1

query: # TODO verify Ratio < 10000 M⁻¹ s⁻¹ strictly for this compound: O=C(Nc1noc2ccccc12)N1CCC(=Cc2cccc(Oc3ccc(C(F)(F)F)cn3)c2)CC1
result: label 0

query: For O=C(Nc1cnccn1)N1CCC(=Cc2cccc(Oc3ccc(C(F)(F)F)cn3)c2)CC1 , is the recorded Ratio below the cut-off of 10000 M⁻¹ s⁻¹?
result: label 0

query: For Cc1cccnc1Oc1cccc(C=C2CCN(C(=O)Nc3cccnn3)CC2)c1 , is the recorded Ratio below the cut-off of 10000 M⁻¹ s⁻¹?
result: label 1

query: Strictly below 10000 M⁻¹ s⁻¹ in Ratio? Cc1ccc(Oc2cccc(C=C3CCN(C(=O)Nc4cccnn4)CC3)c2)nc1
result: label 1

query: Quick check: Ratio of O=C(Nc1cccnc1)N1CC(=Cc2cccc(Oc3ccc(C(F)(F)F)cn3)c2)C1 under 10000 M⁻¹ s⁻¹?
result: label 1

query: Hello, is Ratio of the following compound strictly smaller than 10000 M⁻¹ s⁻¹? O=C(Nc1ccccn1)N1CCC(=Cc2cccc(Oc3ccc(C(F)(F)F)cn3)c2)CC1
result: label 1

query: Is it true that Ratio reported for COc1ccc(NC(=O)N2CCC(=Cc3cccc(Oc4ccc(C(F)(F)F)cn4)c3)CC2)cn1 is less than 10000 M⁻¹ s⁻¹?
result: label 0

query: Threshold test, Ratio < 10000 M⁻¹ s⁻¹: O=C(Nc1cccnn1)N1CCC(=Cc2cccc(Oc3ccccc3)c2)CC1
result: label 1

query: I'd appreciate it if you could check whether O=C(Nc1ccccc1)N1CCC(=Cc2cccc(Oc3ccc(C(F)(F)F)cn3)c2)CC1 has Ratio smaller than 10000 M⁻¹ s⁻¹.
result: label 1

query: Hello, I'm reviewing records and need to know if Ratio of O=C(Nc1cccnn1)N1CCC(=Cc2cccc(Oc3ccc(C4CC4)cn3)c2)CC1 is below 10000 M⁻¹ s⁻¹. Could you check?
result: label 0

query: is_below(Ratio, 10000 M⁻¹ s⁻¹) for O=C(Nc1cccnc1)N1CCC/C(=C\c2cccc(Oc3ccc(C(F)(F)F)cn3)c2)C1 ?
result: label 1

query: Does this compound meet the criterion Ratio < 10000 M⁻¹ s⁻¹? Cc1ccc(NC(=O)N2CCC(=Cc3cccc(Oc4ccc(C(F)(F)F)cn4)c3)CC2)cn1
result: label 1
